Recorded Kd values for a group of sequences are listed next.
Tested on: PDGF
method.notes: filter
condition.details: specificity

- biopolymer.sequence: "GGAAGCUUGAUGGGUGACACACGUCAUGCCGAGCU [ligand 44t]"
  measured.target: "PDGF"
  measurement.units: "nM"
  Kd: 600
- biopolymer.sequence: "GGCCGGUAGUCGCAUGGCCCAUCGCGCCCGG [ligand 100t]"
  measured.target: "PDGF"
  measurement.units: "nM"
  Kd: 600

====

System: VEGF165 (recombinant human vascular endothelial growth factor, 165 aa form) (Homo sapiens), P15692-4
Sequence: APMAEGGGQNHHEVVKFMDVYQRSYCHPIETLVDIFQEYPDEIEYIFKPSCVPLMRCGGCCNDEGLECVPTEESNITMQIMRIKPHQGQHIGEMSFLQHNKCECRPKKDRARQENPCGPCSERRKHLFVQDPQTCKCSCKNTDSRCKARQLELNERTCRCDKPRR
method.notes: filter
pKd: −log10 of the molar value.

- biopolymer.sequence: "CTACCTACGATCTGACTAGCCCACTGCAGAGAGTCAACCTTACGANGCCAAGGTTGCGGTGCTTAGCTTACTCTCATGTAGTTCCT [ssDNA b97]"
  comparator: "<"
  pKd: 9.00
- biopolymer.sequence: "CTACCTACGATCTGACTAGCATCCTTCCGAATGGGGGAAATGGCGNCCCAGCTTACTCTCATGTAGTTCCT [ssDNA b89]"
  comparator: "="
  pKd: 8.70
- biopolymer.sequence: "CTACCTACGATCTGACTAGCCCACTGCATAGAGAGTCGCAAGACACGGTGCTTTATTCNCCGCTTAGCTTACTCTCATGTAGTTCCT [ssDNA b62]"
  comparator: "="
  pKd: 8.54
